biological target: G95A mutant ALS (Oryza sativa subsp. japonica, UniProt Q6K2E8, G95A); construct: made in house; host or cells: Escherichia coli (pGEX-2T); test: Inhibition of expressed GST fusion G95A mutant ALS activity by herbicides; type: biochemical, rice; details: 50% inhibitory concentration, Average, G95A mutant ALS; average of determinations (Table 4)
Sequence (Q6K2E8 44-644 G95A): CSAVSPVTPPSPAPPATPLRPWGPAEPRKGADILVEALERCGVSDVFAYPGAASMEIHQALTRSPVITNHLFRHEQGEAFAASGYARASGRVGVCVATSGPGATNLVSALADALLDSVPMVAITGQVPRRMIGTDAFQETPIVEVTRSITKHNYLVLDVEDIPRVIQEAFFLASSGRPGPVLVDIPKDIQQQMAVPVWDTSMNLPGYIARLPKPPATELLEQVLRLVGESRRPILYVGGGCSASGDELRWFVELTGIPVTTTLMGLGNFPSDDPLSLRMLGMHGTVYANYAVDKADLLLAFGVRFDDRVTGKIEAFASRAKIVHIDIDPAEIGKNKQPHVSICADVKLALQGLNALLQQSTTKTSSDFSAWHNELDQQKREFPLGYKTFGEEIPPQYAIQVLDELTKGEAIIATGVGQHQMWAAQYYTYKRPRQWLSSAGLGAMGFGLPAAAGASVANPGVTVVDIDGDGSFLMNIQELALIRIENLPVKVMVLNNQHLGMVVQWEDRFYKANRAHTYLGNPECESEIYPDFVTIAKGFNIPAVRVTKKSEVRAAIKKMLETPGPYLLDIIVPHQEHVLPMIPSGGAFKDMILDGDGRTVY
The following molecules are listed with their measured IC50 values.
property measured: IC50 (nM)

                                   molecule                             system_tested  property_measured  recorded_result
0  COC(=O)c1ccccc1CS(=O)(=O)NC(=O)Nc1nc(OC)cc(OC)n1  G95A mutant ALS (Oryza sativa subsp. japonica, UniProt Q6K2E8, G95A)               IC50              278
1  CC(C)C1(C)N=C(c2ncccc2C(=O)O)NC1=O (stereo not shown)  G95A mutant ALS (Oryza sativa subsp. japonica, UniProt Q6K2E8, G95A)               IC50            46800
2  COc1nc(C)nc(NC(=O)NS(=O)(=O)c2ccccc2Cl)n1  G95A mutant ALS (Oryza sativa subsp. japonica, UniProt Q6K2E8, G95A)               IC50              2.5
3  CC(C)C1(C)N=C(c2nc3ccccc3cc2C(=O)O)NC1=O (stereo not shown)  G95A mutant ALS (Oryza sativa subsp. japonica, UniProt Q6K2E8, G95A)               IC50             1800

----------
target: G95A mutant ALS (Oryza sativa subsp. japonica, UniProt Q6K2E8, G95A); construct: made in house; host or cells: Escherichia coli (pGEX-2T); test: Inhibition of expressed GST fusion G95A mutant ALS activity by herbicides; assay type: biochemical, rice; conditions: 50% inhibitory concentration (μM) G95A mutant, G95A mutant ALS (Table 5)
property measured: IC50

>>> print(df.to_string())
                                   compound  recorded_result
0  CON=C(C)c1cccc(Oc2nc(OC)cc(OC)n2)c1C(=O)O (mixture of isomers)         > 100 µM
1  COc1cc(OC)nc(Oc2cccc(Oc3nc(OC)cc(OC)n3)c2C(=O)[O-])n1.[Na+] [Bispyribac-sodium, bispyribac-sodium]         > 100 µM
2  COc1cc(OC)nc(Sc2cccc(Cl)c2C(=O)[O-])n1.[Na+] [Pyrithiobac-sodium, pyrithiobac-sodium]         > 100 µM
